- System: HEK293 cells
- protocol summary: Preliminary screening as mRNA vectors, EGFP mRNA transfection of HEK293 cells
- Type: cell-based
- conditions: EGFP mRNA 50 ng per well, 96-well plates; percentage of GFP fluorescent cells relative to total number of cells (Hoechst)
Each entry falls into one class according to its Absolute mRNA transfection efficiency in HEK293 cells; the ranges are low = under 0.9%, medium = from 0.9% up to 3%, high = 3% and over

| molecule | subject of test | discrete label |
| --- | --- | --- |
| CCCCCCCCSc1nc(NCCN(C)C)nc(SCCCCCC)n1 [Compound D1S6S8] | HEK293 cells | low |
| CCCCCCCCCCSc1nc(NCCCCCCC)nc(NCCN2CCOCC2)n1 [Compound D2S10N7] | HEK293 cells | low |

Tag the class for CCCCCCCCCCCCCCCNc1nc(NCCCN(C)C)nc(SCCCCCCCCCCCCCC)n1 [Compound D6S14N15]
low

And for CCCCCCCCCCCCCCCCNc1nc(NCC2CCN(C)CC2)nc(SCCCCCCCCCCCCCCCC)n1 [Compound D10S16N16] ?
medium

// repeat for CCCCCCCCCCCNc1nc(NCCN(C)C)nc(SCCCCCC)n1 [Compound D1S6N11] and report
medium

Same again, this time with CCCCCCCCCCCCCCCCCCNc1nc(NCCN2CCCC2)nc(SCCCCCCCCCCCCCCC)n1 [Compound D3S15N18]
high

Another molecule: CCCCCCCCCCCCCCCCSc1nc(NCCCCCCCCCCC)nc(NCCN2CCN(C)CC2)n1 [Compound D5S16N11]
high

Subsequent entry: CCCCCCCCSc1nc(NCCN2CCCC2)nc(SCCCCCC)n1 [Compound D3S6S8]
medium

Now consider CCCCCCCCCNc1nc(NCC2CCN(C)CC2)nc(SCCCCCCC)n1 [Compound D10S7N9] .
high

Field entry: CCCCCCCCCCCCCCCCNc1nc(NCCCN(C)C)nc(SCCCCCCCCC)n1 [Compound D6S9N16]
high

Queued: CCCCCCCCCCCCN(CCCCCCCCCCCC)c1nc(NCC2CCN(C)CC2)nc(SCCCCCCCCCCC)n1 [D10S11^2N12]
low

Do the same for CCCCCCCCCCCSc1nc(NCCCCCCCCC)nc(NCC2CCN(C)CC2)n1 [Compound D10S11N9] please
high

* * *

Listing: Absolute DNA transfection efficiency in HEK293 cells of selected molecules
- System: HEK293 cells
- protocol summary: Preliminary screening as DNA vectors, GFP transfection of HEK293 cells
- Format: cell-based
- conditions: amino lipid/DOPE liposome with 75 ng plasmid DNA (psin-EGFP-IRES-Puro); number of GFP-expressing cells divided by total nuclei (Hoechst)

Look over these answered cases.
| molecule | result |
| --- | --- |
| CCCCCCCCCCCSc1nc(NCCN2CCCC2)nc(SCCCCCC)n1 | 12.4% |
| CCCCCCCCCSc1nc(NCCN(C)C)nc(SCCCCCCC)n1 [S7S9 D1] | 10.8% |
| CCCCCCCCCCCCCCCNc1nc(NCC2CCN(C)CC2)nc(SCCCCCCCCCC)n1 | 6.9% |
| CCCCCCCCCCCNc1nc(NCCN2CCN(C)CC2)nc(SCCCCCCCCCC)n1 | 7.2% |
| CCCCCCCCCCCCCCCCSc1nc(NCCCCCCC)nc(NCCN2CCN(C)CC2)n1 | 10.1% |
| CCCCCCCCCCCCCCCCNc1nc(NCCN2CCOCC2)nc(SCCCCCCCCCCCCCCC)n1 [S15N16 D2] | 0.0% |
| CCCCCCCCCCSc1nc(NCCCN2CCOCC2)nc(SCCCCCC)n1 | 0.0% |
| CCCCCCCCCCCCNc1nc(NCCN2CCCC2)nc(SCCCCCC)n1 | 6.2% |

For the molecule shown here, CCCCCCCCCCCCCCCCNc1nc(NCCN(C)C)nc(SCCCCCCCCCCCCCC)n1 [S14N16 D1] , give the reported Absolute DNA transfection efficiency in HEK293 cells.
0.7%

And what about the molecule `CCCCCCCCCCCCCCCCCCNc1nc(NCC2CCN(C)CC2)nc(SCCCCCCCCCCC)n1` ?
5.7%

Again, but for `CCCCCCCCCCCCSc1nc(NCCN2CCCC2)nc(N(CCCCCCCCCCCC)CCCCCCCCCCCC)n1`
0.0%

Also CCCCCCCCCCCCCCCNc1nc(NCCN(C)C)nc(SCCCCCCCCCC)n1 [S10N15 D1] , if possible.
4.8%

Let us now turn to `CCCCCCCCCCCCCCSc1nc(NCCCN2CCN(C)CC2)nc(SCCCCCC)n1`
4.1%

Repeat for the following molecule: `CCCCCCCCCNc1nc(NCCN2CCN(C)CC2)nc(SCCCCCCCC)n1`
35.9%

* * *

- protocol summary: Particle size and PDI of lipid nanoparticles (Nano-ZSZEN3600, Malvern)
- Assay type: physicochemical
- conditions: LNPs, Formulation method 2
assay readout: PDI
Lab note: record just the number, no unit beside it.

Past entries and their recorded results:
| structure as smiles | number |
| --- | --- |
| CCCCCCCCCCCCSc1nc(NCCCN2CCOCC2)nc(SCCCCCCCCCCC)n1 | 0.01 |
| CCCCCCCCCCCCCCCCSc1nc(NCCCN2CCN(C)CC2)nc(SCCCCCCCC)n1 | 0.02 |
| CCCCCCCCCCCCCCCCSc1nc(NCCCCCCCCC)nc(NCCN2CCCC2)n1 | 0.06 |
| CCCCCCCCCCCCCCCSc1nc(NCCCCCCCCCCC)nc(NCCN2CCN(C)CC2)n1 | 0.01 |
| CCCCCCCCCCCCCCCCSc1nc(NCCCCCCC)nc(NCCCN2CCN(C)CC2)n1 | 0.05 |
| CCCCCCCCCCCCCNc1nc(NCCCN(C)C)nc(SCCCCCCCCCCCC)n1 | 0.04 |
| CCCCCCCCCCCCCCCCCCSc1nc(NCCN2CCCC2)nc(SCCCCCCC)n1 | 0.04 |

Request the reported PDI associated with `CCCCCCCCCCCCCCCCSc1nc(NCC2CCN(C)CC2)nc(SCCCCCCCCCC)n1`
0.04

* * *

- System: cardiomyocytes
- protocol summary: Screening as DNA vectors in cardiomyocytes
- Type: cell-based
- Set-up: concentration or dose not given beside the values
- conditions: method as Example 4
assay readout: Absolute DNA transfection efficiency in cardiomyocytes (%)
API: value field is a number in %; no unit string.

| structure as smiles | subject of test | number |
| --- | --- | --- |
| CCCCCCCCCCCSc1nc(NCCCN(C)C)nc(SCCCCCCCC)n1 | cardiomyocytes | 1.0 |
| CCCCCCCCCCCCSc1nc(NCCCN2CCOCC2)nc(SCCCCCCCC)n1 | cardiomyocytes | 1.9 |
| CCCCCCCCCCCSc1nc(NCCCCCCCC)nc(NCCCN2CCOCC2)n1 | cardiomyocytes | 1.2 |
| CCCCCCCCCCCSc1nc(NCC2CCN(C)CC2)nc(SCCCCCCCC)n1 | cardiomyocytes | 1.4 |
| CCCCCCCCCCCNc1nc(NCCCN(C)C)nc(SCCCCCCCC)n1 | cardiomyocytes | 1.4 |

State the recorded Absolute DNA transfection efficiency in cardiomyocytes for this entry: `CCCCCCCCCCCNc1nc(NCCN2CCN(C)CC2)nc(SCCCCCCCC)n1`
3.0

Now the compound `CCCCCCCCCCCNc1nc(NCCN2CCCC2)nc(SCCCCCCCC)n1`
0.5

Try the compound `CCCCCCCCCCCNc1nc(NCCN2CCCC2)nc(SCCCCCCCCC)n1`
0.4

Try the compound `CCCCCCCCCCCCCCCSc1nc(NCCN2CCCC2)nc(SCCCCCCCCC)n1`
0.3

Then `CCCCCCCCCCCSc1nc(NCCCCCCCC)nc(NCC2CCN(C)CC2)n1` ?
6.6

And for `CCCCCCCCCCCCSc1nc(NCCN2CCN(C)CC2)nc(SCCCCCCCC)n1` ?
2.4

* * *

- Tested on: HEK293 cells
- protocol summary: Preliminary screening as mRNA vectors, EGFP mRNA transfection of HEK293 cells
- Assay type: cell-based
- conditions: EGFP mRNA 50 ng per well, 96-well plates; percentage of GFP fluorescent cells relative to total number of cells (Hoechst)
assay readout: Absolute mRNA transfection efficiency in HEK293 cells (%)
Just the number please, in %, no unit attached.

Reference set (3 entries):
| structure as smiles | display unit | number |
| --- | --- | --- |
| CCCCCCCCCCCCCCCCCCNc1nc(NCCN(C)C)nc(SCCCCCCCCC)n1 | % | 47.6 |
| CCCCCCCCCCCNc1nc(NCCCN2CCN(C)CC2)nc(SCCCCCCCCCCC)n1 | % | 24.5 |
| CCCCCCCCCCCCCCCCNc1nc(NCCN2CCN(C)CC2)nc(SCCCCCCCCC)n1 | % | 16.1 |

Look at this compound and give its reported Absolute mRNA transfection efficiency in HEK293 cells. `CCCCCCCCCCCCNc1nc(NCCN2CCN(C)CC2)nc(SCCCCCCC)n1`
23.0
